- experimental.protocol: Aqueous solubility of APD125
- Format: physicochemical
- test.conditions: simulated gastric fluid; 0.01 N HCl (about pH 2)
measurement.name: solubility

Exam item: Need solubility of COc1ccc(NC(=O)Nc2ccc(F)cc2F)cc1-c1c(Br)cnn1C [APD125] , thanks.
Marked response: ≤ 10 µg/mL

###

- experimental.protocol: Aqueous solubility of APD125
- Type: physicochemical
- test.conditions: aqueous buffer; phosphate buffer (about pH 7)
measurement.name: solubility

Exam item: Please look up its solubility: "COc1ccc(NC(=O)Nc2ccc(F)cc2F)cc1-c1c(Br)cnn1C"
Marked response: ≤ 10 µg/mL

###

- experimental.protocol: Aqueous solubility of APD125
- Assay type: physicochemical
- test.conditions: saline (about 0.9% NaCl solution), saline or isotonic
measurement.name: solubility

Exam item: Which value of solubility has been reported for "COc1ccc(NC(=O)Nc2ccc(F)cc2F)cc1-c1c(Br)cnn1C" in the records?
Marked response: ≤ 10 µg/mL
